Data origin, for the record: PubChem BioAssay AID1963447

# key: entry, value: viability, T/C
System: 885512-296-R-J2-PDC complex spheroid growth, % test/control;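 note: spheroids exposed to compounds for seven days; 100% = DMSO vehicle control wells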
Assay: Anticancer human tumor 885512-296-R-J2-PDC patient-derived breast carcinoma cell line growth inhibition [Asc]
Settings: second compound 0.01 µM; first compound 0.0316 µM; stronger effect = lower value
Just the number please, in %, no unit attached.

Some solved entries appear below for comparison.
compound="NC1CCC(NC2CC2c2ccccc2)CC1 (centres undefined) + CNC(C)C(=O)NC1CN(S(=O)(=O)c2cccc(S(=O)(=O)N3CCC4CCC(C(=O)NC(c5ccccc5)c5ccccc5)N4C(=O)C(NC(=O)C(C)NC)C3)c2)CCC2CCC(C(=O)NC(c3ccccc3)c3ccccc3)N2C1=O" value_unit=% measured=111
compound="C=C(F)C(=O)N1CCN(c2nc(OCC3CCCN3C)nc3c2CCN(c2cccc4cccc(Cl)c24)C3)CC1CC#N (centres undefined) + CNC(C)C(=O)NC1CN(S(=O)(=O)c2cccc(S(=O)(=O)N3CCC4CCC(C(=O)NC(c5ccccc5)c5ccccc5)N4C(=O)C(NC(=O)C(C)NC)C3)c2)CCC2CCC(C(=O)NC(c3ccccc3)c3ccccc3)N2C1=O" value_unit=% measured=88.6
compound="C=CC(=O)N1CCN(c2nc(=O)n(-c3c(C)ccnc3C(C)C)c3nc(-c4c(O)cccc4F)c(F)cc23)C(C)C1 (centres undefined) + CNC(C)C(=O)NC1CN(S(=O)(=O)c2cccc(S(=O)(=O)N3CCC4CCC(C(=O)NC(c5ccccc5)c5ccccc5)N4C(=O)C(NC(=O)C(C)NC)C3)c2)CCC2CCC(C(=O)NC(c3ccccc3)c3ccccc3)N2C1=O" value_unit=% measured=88.2

Look up viability, T/C: C#Cc1c(F)ccc2cc(O)cc(-c3ncc4c(N5CC6CCC(C5)N6)nc(OCC56CCCN5CC(F)C6)nc4c3F)c12 (centres undefined) + CNC(C)C(=O)NC1CN(S(=O)(=O)c2cccc(S(=O)(=O)N3CCC4CCC(C(=O)NC(c5ccccc5)c5ccccc5)N4C(=O)C(NC(=O)C(C)NC)C3)c2)CCC2CCC(C(=O)NC(c3ccccc3)c3ccccc3)N2C1=O
94.5

And the next one, O=C(c1ccc(F)c(F)c1Nc1ccc(I)cc1F)N1CC(O)([C@@H]2CCCCN2)C1 + CNC(C)C(=O)NC1CN(S(=O)(=O)c2cccc(S(=O)(=O)N3CCC4CCC(C(=O)NC(c5ccccc5)c5ccccc5)N4C(=O)C(NC(=O)C(C)NC)C3)c2)CCC2CCC(C(=O)NC(c3ccccc3)c3ccccc3)N2C1=O ?
59

And the next one, CCN1CCN(Cc2ccc(Nc3ncc(F)c(-c4cc(F)c5nc(C)n(C(C)C)c5c4)n3)nc2)CC1 + CNC(C)C(=O)NC1CN(S(=O)(=O)c2cccc(S(=O)(=O)N3CCC4CCC(C(=O)NC(c5ccccc5)c5ccccc5)N4C(=O)C(NC(=O)C(C)NC)C3)c2)CCC2CCC(C(=O)NC(c3ccccc3)c3ccccc3)N2C1=O ?
82.6

And the next one, O=C(c1cc(Cc2n[nH]c(=O)c3ccccc23)ccc1F)N1CCN(C(=O)C2CC2)CC1 + CNC(C)C(=O)NC1CN(S(=O)(=O)c2cccc(S(=O)(=O)N3CCC4CCC(C(=O)NC(c5ccccc5)c5ccccc5)N4C(=O)C(NC(=O)C(C)NC)C3)c2)CCC2CCC(C(=O)NC(c3ccccc3)c3ccccc3)N2C1=O ?
95.6

And the next one, Cn1ncnc1[C@H]1c2n[nH]c(=O)c3cc(F)cc(c23)N[C@@H]1c1ccc(F)cc1 + CNC(C)C(=O)NC1CN(S(=O)(=O)c2cccc(S(=O)(=O)N3CCC4CCC(C(=O)NC(c5ccccc5)c5ccccc5)N4C(=O)C(NC(=O)C(C)NC)C3)c2)CCC2CCC(C(=O)NC(c3ccccc3)c3ccccc3)N2C1=O ?
47.7

And the next one, COc1c(OCCCN2CCOCC2)ccc2c3n(c(=NC(=O)c4cnc(N)nc4)nc12)CCN3 + CNC(C)C(=O)NC1CN(S(=O)(=O)c2cccc(S(=O)(=O)N3CCC4CCC(C(=O)NC(c5ccccc5)c5ccccc5)N4C(=O)C(NC(=O)C(C)NC)C3)c2)CCC2CCC(C(=O)NC(c3ccccc3)c3ccccc3)N2C1=O ?
79.6
